# Tested on: CEM cells HIV-1 protection, formazan growth assay
# TEST: NCI AIDS Antiviral Assay
The source made the active and inactive calls.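 How the source made its calls: active means compounds giving half or more protection of infected cells from virus-caused growth loss, again on retest; inactive means the rest.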
Classes to choose from: 1 for active, -1 for inactive

Solved cases below.
1. COC(=O)[C@@H]1CCCN1C(=O)C1Cc2c([nH]c3ccccc23)[C@@H](C=C(C)C)N1C(=O)OC(C)(C)C(Cl)(Cl)Cl (some centres not stated) ... -1
2. O=C1C(c2ccccc2)=C2C(=C1c1ccccc1)c1cccc3cccc2c13 ... -1

input: Answer briefly: the call reported for C/C(=N/O)C1CC=C(S(=O)(=O)c2ccccc2)C1 (configuration not stated) in this assay.
output: -1

input: GET /call?item= "O=C1OC(=O)C([Se]c2ccccc2)=C1[Se]c1ccccc1" returns the recorded outcome of this test.
output: -1

input: Test call, this compound: "CCOC(=O)c1ccc(N2C(=O)/C(=C\OC)c3ccccc3C2=O)cc1"
output: -1

input: Recorded test outcome, item "O=C1CCC2=C1C[C@@H]1CCCO[C@@H]1O2"
output: -1

input: What was the test verdict on O1[SiH]2[SiH]3O[SiH]3[SiH]3O[SiH]3[SiH]12 (configuration not stated) ?
output: -1

---

Collected IC50 values appear next to each entry.
# Test system: CEM cells HIV-1 protection, formazan growth assay
# TEST: NCI AIDS Antiviral Assay
# CONDITION_CONTEXT: measured here: growth of uninfected CEM cells
Where a SMILES comes first, the peptide text is derived from it. [ ]: non-standard residue; d: D form. The star is where a group is joined. ξ: configuration not given here. Bz = O=C(c1ccccc1)*; Bn = c1ccc(C*)cc1; ξC = NC(CS)C(=O)O
Response body: numeric value in µM, unit text excluded.

1) CC1OC2CC(=O)OC2C2=C1C(=O)c1c(O)cccc1C2=O (stereo not given) ... 0.0282
2) COC(=O)C(CSCc1ccccc1)NC(=O)CNC(=O)c1ccccc1 (stereo not given) (Bz-Gly-[ξC](Bn)-OMe) ... 219
3) COc1c(Cl)cc(Cc2cc(C(=CCC[C@H]3CC[C@@]4(C)[C@@H](CC[C@@H]5[C@@H]4CC[C@]4(C)[C@@H](C(C)CCCC(C)C)CC[C@@H]54)C3)c3cc(Cc4cc(Cl)c(OC)c(C(=O)O)c4)c(OC)c(C(=O)O)c3)cc(C(=O)O)c2OC)cc1C(=O)O (stereo not given in full) ... 107

Consider the additional molecule presented here.
Consider CC(=O)O[C@H]1[C@@H](OC2CCCC2(c2ccccc2)c2ccccc2)O[N+]([O-])=C[C@@H]1c1ccccc1 (stereo not given in full) . Its measured IC50 is 3.09

---

# Tested on: CEM cells HIV-1 protection, formazan growth assay
# TEST: NCI AIDS Antiviral Assay
READOUT_KIND: EC50

1. COc1cccc(C2SCC(=O)N2c2ccc(-n3c(-c4ccccc4)nc4ccccc4c3=O)cc2)c1OC (stereo not given) ... > 200 µM
2. Cc1cc(NS(=O)(=O)c2ccc(Nc3c4ccccc4nc4c(C(=O)NCC#N)cccc34)cc2)no1 ... > 200 µM
3. Cc1ccc(S(=O)(=O)N(CC(=O)O)c2c[nH]c(C(=O)O)c2)cc1 ... > 200 µM
4. CC1=C(O[Si](C(C)C)(C(C)C)C(C)C)C2CC1(OS(=O)(=O)C(F)(F)F)[C@H]1C(=O)N(c3ccccc3)C(=O)[C@@H]21 (stereo not given in full) ... > 4.79 µM

Entry O=C1c2ccc(O)cc2OC(c2ccc(O)c(O)c2)C1O (stereo not given) , tested on CEM cells HIV-1 protection, formazan growth assay, has a reported EC50 of > 200 µM

---

# System: CEM cells HIV-1 protection, formazan growth assay
# TEST: NCI AIDS Antiviral Assay
# CONDITION_CONTEXT: measured here: growth of uninfected CEM cells
pIC50: −log10 of the molar value.
Classify by measured pIC50: yes (1) if it is equal to or exceeds 5, no (0) if it is smaller.

See these solved cases before continuing.
1. Cc1c(C#N)c(N)[nH]c(=S)c1C#N ... no (0)
2. CC1(C)COC(c2cccc(C3=NC(C)(C)CO3)c2Br)=N1 ... no (0)
3. C=C1CC2CCCC12C=O (centres undefined) ... no (0)
4. Nc1[nH][nH]c(=O)c1N=O ... no (0)
5. CN(C)/C=N/NC(=O)/C(C#N)=C/N(C)C ... no (0)
6. Cc1ccsc1/C=N/NC1=NCCN1 ... no (0)
7. CCC(C)NC(=S)N/N=C(\C)c1ccccn1 (centres undefined) ... yes (1)
8. O=C(N=Nc1ccc(Cl)cc1Cl)NNc1ccc(Cl)cc1Cl ... no (0)

input: Please check the record "Nc1c[nH][nH]c(=S)c1=S" and state if its pIC50 is at or above 5.
output: yes (1)

input: Given CC(=O)OCC1OC(N2C(=O)NC(=O)C3C=C4CCCCC4=CC32)CC1OC(C)=O (centres undefined) , state whether its pIC50 is at least 5.
output: no (0)

input: Kindly determine if pIC50 recorded for "Nc1ncc2c(ncn2CCO)n1" is above or exactly 5.
output: no (0)

input: Quick check, pIC50 >= 5? "O=C1NC(=S)N/C1=C\c1cc2c(=O)c3ccccc3sc2s1"
output: no (0)

input: Check this molecule for pIC50 at or above 5: "S=c1[nH]c2cccc3c2n1C[C@@H]1CCCN1C3"
output: no (0)

input: Exam item: decide whether the reported pIC50 for "Sc1nnc(-c2ccccc2Nc2ccccc2-c2nnc(S)n2-c2ccccc2)n1-c1ccccc1" is at least 5.
output: no (0)

input: Exam item: decide whether the reported pIC50 for Clc1ccc(SC(/C=C/NNC2=NC(c3ccccc3)C(c3ccccc3)=NN2)c2ccccc2)cc1 (centres undefined) is at least 5.
output: yes (1)

input: Hello, I need to know if CC#CCCCC1(C)CCCNC1=S (centres undefined) has measured pIC50 not below 5. Thanks!
output: no (0)

input: Could you please find out whether "Cn1c(NC(=O)NC23CC4CC(CC(C4)C2)C3)nc2ccccc21" has pIC50 that meets 5 or exceeds it?
output: no (0)

input: Could you tell me if the measured pIC50 of "O=S(=O)(/C=N\N=P(c1ccccc1)(c1ccccc1)c1ccccc1)c1ccccc1-c1ccccc1" reaches 5 or more?
output: no (0)

input: Please indicate if the recorded pIC50 for "Cn1nc(-c2ccccc2)c(C(=O)/C=C/c2ccccc2)c(N2CCCCC2)c1=O" meets or exceeds 5.
output: no (0)

input: Has Cc1cccc2c1C(=O)C(C1OC(=O)c3ccccc31)C2 (centres undefined) a recorded pIC50 greater than or equal to 5?
output: no (0)

input: State whether the measured pIC50 reaches 5, counting equality as reaching it, for Cc1cc(S(=O)(=O)Nc2nc(N)nc(N3N=CCC3C)n2)c(SCC(=O)O)cc1Cl (centres undefined)
output: no (0)

input: Is pIC50 at least 5? Consider "c1ccc([P+](CCN2Cc3ccccc3C2)(c2ccccc2)c2ccccc2)cc1"
output: yes (1)

---

# System: CEM cells HIV-1 protection, formazan growth assay
# TEST: NCI AIDS Antiviral Assay;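 active = compounds giving half or more protection of infected cells from virus-caused growth loss, again on retest; inactive = the rest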
Give one outcome, nothing more. List: true = active, false = inactive

The examples below pair each entry with its known result.
1. CC(OCc1ccccc1)C(NC(=O)C1CSSCC(NC(=O)C(Cc2ccccc2)NC(=O)OCc2ccccc2)C(=O)NC(Cc2ccccc2)C(=O)NC(Cc2cn(C=O)c3ccccc23)C(=O)NC(CCCCNC(=O)OCc2ccccc2)C(=O)NC(C(C)OCc2ccccc2)C(=O)N1)C(N)=O (centres undefined) ... false
2. CCN1CCOC(c2ccccc2)C1c1ccccc1 (centres undefined) ... false
3. NC(=O)CCNC(=O)c1ccc(NC(=O)c2ccccc2SC(=O)CCCC[n+]2ccccc2)cc1 ... true
4. CCOC(=O)CN(Cn1cncn1)Cn1cncn1 ... false
5. O=C(CC(=O)c1ccccc1)CC(=O)c1ccccc1 ... false

# evaluate next
input: Called result for COc1cc2c[n+](C)c3c4ccccc4ccc3c2cc1OC (tested in a mixture with another compound)
output: false

---

# Test system: CEM cells HIV-1 protection, formazan growth assay
# TEST: NCI AIDS Antiviral Assay;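 active = compounds giving half or more protection of infected cells from virus-caused growth loss, again on retest; inactive = the rest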
Output constraint: value belongs to True = active, False = inactive

Check out these entries, answers already filled in.
1) CC(C)CC(F)(C(N)=O)C(N)=O ... False
2) COc1ccc(NS(=O)CCc2ccccc2)cc1 (centres undefined) ... False
3) CCOC(=O)[C@@H]1ON2O[C@H](OC3CCCC3(c3ccccc3)c3ccccc3)C[C@H]3OC(=O)[C@@H]1C32 (some centres undefined) ... False

input: Name the outcome recorded for "COc1cc2c(cc1O)[C@H]1COc3ccccc3[C@H]1O2" in the assay.
output: False

input: // return assay outcome for O=C(Nc1ccc([N+](=O)[O-])cc1[N+](=O)[O-])C(=O)C(C(=O)c1ccc(Cl)c(Cl)c1)C1OC(=O)c2ccccc21 (centres undefined)
output: False

input: For "O=C(CSc1nc(-c2ccccc2)c(-c2ccccc2)[nH]1)N/N=C/c1ccc(Cl)cc1" , which call appears in the assay record?
output: False

input: Please let me know the test result on file for "Cc1ccc(S(=O)(=O)N(CCN2C(=O)c3ccccc3C2=O)c2cc3c4c(c2)Oc2cc(N(CCN5C(=O)c6ccccc6C5=O)S(=O)(=O)c5ccc(C)cc5)cc5c2C4(C)c2c(cc(N(CCN4C(=O)c6ccccc6C4=O)S(=O)(=O)c4ccc(C)cc4)cc2O5)O3)cc1" .
output: False

input: Call for entry O=C1OC(c2ccccc2)c2ccsc2-n2cccc21 (centres undefined) :
output: False

input: Check the results log: what was the call for "COC(=O)CC(SCCO)SCCO" ?
output: False
